# conditions.used: 323.15 K; 101 kPa; Liquid; Linear variable-path acoustic interferometer
// reported speed of sound per item
Just the number in m/s, nothing appended.

Which speed of sound reading was recorded for the compound CCNc1ccccc1 [N-ethylaminobenzene] ?
1431

Which speed of sound reading was recorded for the compound Nc1ccccc1 [aniline] ?
1558

Which speed of sound reading was recorded for the compound C1CCOC1 [tetrahydrofuran] ?
1171

Which speed of sound reading was recorded for the compound CNc1ccccc1 [N-methylaniline] ?
1477
